- method: Solubility test of crystal IV in different pH medium solutions
- Assay type: physicochemical
- assay conditions: aqueous buffer, thermodynamic from solid; pH = 7.4 Buffer, 37° C., 24 hours, supernatant pH 7.24
metric name: solubility at 24 h (µg/mL)

compound smiles	recorded result
C[C@H](NC(=O)c1cc(-c2ccccc2Cl)on1)C(=O)N[C@@H](CC(=O)O)C(=O)COc1c(F)c(F)cc(F)c1F	1620

----------
- method: Solubility test of crystal IV in different pH medium solutions
- Format: physicochemical
- assay conditions: aqueous buffer, thermodynamic from solid; pH = 6.0 Buffer, 37° C., 24 hours, supernatant pH 6.04

compound	solubility at 24 h [µg/mL]
C[C@H](NC(=O)c1cc(-c2ccccc2Cl)on1)C(=O)N[C@@H](CC(=O)O)C(=O)COc1c(F)c(F)cc(F)c1F [crystal IV]	340
